# ASSAYED_TARGET: 2-5A-dependent ribonuclease (Mus musculus)
# ASSAY: Binding affinity against 2-5A-dependent RNase L in mouse L cell extracts using ppp5'A2p5'A2'p5'A3'[32P]pCp as a radioactive probe
# Type: cell-free
ASSAY_ENDPOINT: Activity

{"columns": ["SAMPLE_SMILES", "Activity"],
 "data": [
  ["Nc1ncnc2c1nc(Br)n2[C@@H]1O[C@H](COP(=O)(O)O[C@@H]2[C@H](O)[C@@H](COP(=O)(O)O[C@@H]3[C@H](O)[C@@H](COP(=O)(O)O[C@@H]4[C@H](O)[C@@H](CO)O[C@H]4n4c(Br)nc5c(N)ncnc54)O[C@H]3n3c(Br)nc4c(N)ncnc43)O[C@H]2n2c(Br)nc3c(N)ncnc32)[C@@H](O)[C@H]1O", "3e-08"],
  ["Nc1ncnc2c1nc(Br)n2[C@H]1O[C@@H](COP(=O)(O)O[C@H]2[C@@H](O)[C@H](COP(=O)(O)O[C@H]3[C@@H](O)[C@H](COP(=O)(O)O[C@H]4[C@@H](O)[C@H](COP(=O)(O)O[C@H]5[C@@H](O)[C@H](COP(=O)(O)O)O[C@@H]5n5c(Br)nc6c(N)ncnc65)O[C@@H]4n4c(Br)nc5c(N)ncnc54)O[C@@H]3n3c(Br)nc4c(N)ncnc43)O[C@@H]2n2c(Br)nc3c(N)ncnc32)[C@H](O)[C@@H]1O", "3e-09"],
  ["Nc1ncnc2c1nc(Br)n2[C@@H]1O[C@H](COP(=O)(O)O[C@@H]2[C@H](O)[C@@H](COP(=O)(O)O[C@@H]3[C@H](O)[C@@H](COP(=O)(O)O)O[C@H]3n3c(Br)nc4c(N)ncnc43)O[C@H]2n2c(Br)nc3c(N)ncnc32)[C@@H](O)[C@H]1O", "2e-08"],
  ["Nc1ncnc2c1nc(Br)n2[C@@H]1O[C@H](COP(=O)(O)O[C@@H]2[C@H](O)[C@@H](COP(=O)(O)O[C@@H]3[C@H](O)[C@@H](COP(=O)(O)O[C@@H]4[C@H](O)[C@@H](COP(=O)(O)O)O[C@H]4n4c(Br)nc5c(N)ncnc54)O[C@H]3n3c(Br)nc4c(N)ncnc43)O[C@H]2n2c(Br)nc3c(N)ncnc32)[C@@H](O)[C@H]1O", "4e-09"]
]}

[A] Nc1ncnc2c1nc(Br)n2[C@@H]1O[C@H](COP(=O)(O)O[C@@H]2[C@H](O)[C@@H](COP(=O)(O)O[C@@H]3[C@H](O)[C@@H](COP(=O)(O)OP(=O)(O)O)O[C@H]3n3c(Br)nc4c(N)ncnc43)O[C@H]2n2c(Br)nc3c(N)ncnc32)[C@@H](O)[C@H]1O
[B] Nc1ncnc2c1nc(Br)n2[C@@H]1O[C@H](COP(=O)(O)O[C@@H]2[C@H](O)[C@@H](COP(=O)(O)O[C@@H]3[C@H](O)[C@@H](CO)O[C@H]3n3c(Br)nc4c(N)ncnc43)O[C@H]2n2c(Br)nc3c(N)ncnc32)[C@@H](O)[C@H]1O
Exam item: Name the one with the greater Activity value, either A or B as given. The response must carry the label of the picked entry.
Marked response: B

----------
# ASSAYED_TARGET: 2-5A-dependent ribonuclease (Mus musculus)
# ASSAY: Binding affinity against 2-5A-dependent RNase L in mouse L cell extracts using ppp5'A2p5'A2'p5'A3'[32P]pCp as a radioactive probe
# Type: cell-free
ASSAY_ENDPOINT: Relative ability

{"columns": ["SAMPLE_SMILES", "Relative ability"],
 "data": [
  ["Nc1ncnc2c1nc(Br)n2[C@@H]1O[C@H](COP(=O)(O)O[C@@H]2[C@H](O)[C@@H](COP(=O)(O)O[C@@H]3[C@H](O)[C@@H](COP(=O)(O)O[C@@H]4[C@H](O)[C@@H](CO)O[C@H]4n4c(Br)nc5c(N)ncnc54)O[C@H]3n3c(Br)nc4c(N)ncnc43)O[C@H]2n2c(Br)nc3c(N)ncnc32)[C@@H](O)[C@H]1O", 0.023],
  ["Nc1ncnc2c1nc(Br)n2[C@@H]1O[C@H](COP(=O)(O)O[C@@H]2[C@H](O)[C@@H](COP(=O)(O)O[C@@H]3[C@H](O)[C@@H](COP(=O)(O)O[C@@H]4[C@H](O)[C@@H](COP(=O)(O)O)O[C@H]4n4c(Br)nc5c(N)ncnc54)O[C@H]3n3c(Br)nc4c(N)ncnc43)O[C@H]2n2c(Br)nc3c(N)ncnc32)[C@@H](O)[C@H]1O", 0.18],
  ["Nc1ncnc2c1nc(Br)n2[C@H]1O[C@@H](COP(=O)(O)O[C@H]2[C@@H](O)[C@H](COP(=O)(O)O[C@H]3[C@@H](O)[C@H](COP(=O)(O)O[C@H]4[C@@H](O)[C@H](COP(=O)(O)O[C@H]5[C@@H](O)[C@H](COP(=O)(O)O)O[C@@H]5n5c(Br)nc6c(N)ncnc65)O[C@@H]4n4c(Br)nc5c(N)ncnc54)O[C@@H]3n3c(Br)nc4c(N)ncnc43)O[C@@H]2n2c(Br)nc3c(N)ncnc32)[C@H](O)[C@@H]1O", 0.23]
]}

[I] Nc1ncnc2c1nc(Br)n2[C@@H]1O[C@H](COP(=O)(O)O[C@@H]2[C@H](O)[C@@H](COP(=O)(O)O[C@@H]3[C@H](O)[C@@H](COP(=O)(O)OP(=O)(O)O)O[C@H]3n3c(Br)nc4c(N)ncnc43)O[C@H]2n2c(Br)nc3c(N)ncnc32)[C@@H](O)[C@H]1O
[II] Nc1ncnc2c1nc(Br)n2[C@@H]1O[C@H](COP(=O)(O)O[C@@H]2[C@H](O)[C@@H](COP(=O)(O)O[C@@H]3[C@H](O)[C@@H](CO)O[C@H]3n3c(Br)nc4c(N)ncnc43)O[C@H]2n2c(Br)nc3c(N)ncnc32)[C@@H](O)[C@H]1O
Exam item: Name the one with the greater Relative ability value, either I or II as given. The response must carry the label of the picked entry.
Marked response: I
